Values compiled from patent US4323547A.

- System: heart muscle
- measurement_description: Heart muscle uptake and elimination of radiolabelled fatty acids after tail vein injection in mice
- Assay type: in vivo, NMRI mice
- measurement_parameters: comparative tests, table 2; heart

>  <compound>
O=C(O)CCCCCCCCCCCCCCCC[34Cl] [17-^34m Cl-Heptadecanoic acid]

>  <assayed_target>
heart muscle

>  <unit_string>
min

>  <Time to Max. Enrichment>
0.25

$$$$
>  <compound>
CCCCCCCCCCCCCCCCC([18F])C(=O)O (centres unmarked) [2-^18 F-Stearic acid]

>  <assayed_target>
heart muscle

>  <unit_string>
min

>  <Time to Max. Enrichment>
1

$$$$
>  <compound>
O=C(O)CCCCCCCCCCCCCCC[18F] [16-^18 F-Palmitic acid, 16-^18 F hexadecanoic acid]

>  <assayed_target>
heart muscle

>  <unit_string>
min

>  <Time to Max. Enrichment>
0.25

$$$$
>  <compound>
CCCCCCCCCCCCCCC[11C](=O)O [1-[^11 C] Palmitic acid]

>  <assayed_target>
heart muscle

>  <unit_string>
min

>  <Time to Max. Enrichment>
0.25

$$$$
>  <compound>
O=C(O)CCCCCCCCCCCCCCCC[18F] [17-^18 F-Heptadecanoic acid]

>  <assayed_target>
heart muscle

>  <unit_string>
min

>  <Time to Max. Enrichment>
0.5

$$$$
